The reported measurements were obtained from paper PMC5540273.

Please respond with reported %Inh for every item in the list.
test system: CDK4-cyclinD3; conditions: concentration: 1 μM, replicates: in singlicate; n = 1;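 also: KINOMEscan kinase panel screen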
Field format: number, assumed %, no unit text.

Task: Look up %Inh for this compound: C[C@@H]1CC[C@@H](C(=O)Nc2ccccc2)CN1c1cc(-c2ccc3c(N)n[nH]c3c2)nc(N)n1 [GSK2286062]
Output: 0

Task: For CC(=O)N1CCN(c2ccc(Nc3nccc(-c4sc(C(C)C)nc4-c4cccc(NS(=O)(=O)c5cccc(Cl)c5)c4)n3)cn2)CC1 [GSK1660437] then?
Output: 4

Task: Please do the same for COc1cc(Nc2nccc(N3CCC(NC(=O)c4cc5ccccc5s4)C3)n2)cc(OC)c1OC (stereo not drawn) [GSK1379760] as well.
Output: 0

Task: Record: CCS(=O)(=O)c1ccc(OC)c(Nc2nccc(-c3c(-c4cccc(NC(=O)c5c(F)cccc5F)c4)nn4ncccc34)n2)c1 [GSK326180]
Output: 12

Task: Also CC(C)c1nc(-c2cccc(NS(=O)(=O)c3c(F)cccc3F)c2F)c(-c2ccnc(Nc3ccc(N4CCOCC4)nc3)n2)s1 [GSK2008607] ?
Output: 93.6

Task: What about this compound? CN(C)Cc1ccc(-c2ccc3c(Nc4ccc(Oc5ccccn5)cc4)ccnc3c2)o1 [GW567148]
Output: 0

Task: Subsequent entry: COc1cccc(NC(=O)NC2CCN(c3ccnc(Nc4cc(OC)c(OC)c(OC)c4)n3)C2)c1 (stereo not drawn) [GSK1379763]
Output: 0

Task: How about this compound: COc1ccc(CNC(=O)NC2CCN(c3ccnc(Nc4ccc(F)cc4)n3)CC2)cc1 [GSK1379788]
Output: 0

Task: Similarly, COc1cc2c(cc1OCCN1CCNCC1)ncc1c3ccc(C#N)cc3[nH]c21 ?
Output: 0

====

tested on: TGFBR2; settings: concentration: 1 μM, replicates: in singlicate; n = 1
observable: %Inh

Task: // query %Inh value for entry Cn1cc(-c2[nH]c3cc(NC(=O)[C@H](N)C4CCCCC4)cc4c3c2C=NNC4=O)cn1
Output: 66%

Task: Lookup c1ccc(Oc2ccc(Nc3ccnc4cc(-c5ccc(CNCCN6CCOCC6)o5)ccc34)cc2)nc1
Output: 0%

Task: Please do the same for Nc1ncc(-c2ccc3nccc(-c4ccncc4)c3c2)cc1S(=O)(=O)N1CCOCC1 as well.
Output: 5%

Task: Consider next the compound FC(F)(F)c1ccc(/C=C/c2cncnc2Nc2ccc3[nH]c(Cc4ccccc4)nc3c2)cc1 in the same way.
Output: 0%

Task: Moving on to the next compound: COc1cc(Nc2nccc(N3CCC(NC(=O)c4cc5ccccc5s4)C3)n2)cc(OC)c1OC (stereo not drawn)
Output: 0%

Task: Next entry: Fc1ccc(-c2ncn(C3CCNCC3)c2-c2ccnc(Oc3ccc(-c4ccccc4)cc3)n2)cc1
Output: 16%

====

system: VRK2; conditions: concentration: 1 μM, replicates: in singlicate; n = 1
Please respond with reported %Inh for every item in the list.
Give the number; % is assumed, so skip it.

Task: Recorded %Inh for Nc1ncnc2c1nc(-c1ccccc1)n2-c1ccccc1 [SKF-97293] with VRK2, please?
Output: 36

Task: Next: Cc1ccc(F)c(C(=O)Nc2cccc(-c3nn4ccccc4c3-c3ccnc(Nc4cccc(F)c4)n3)c2)c1F [GSK361061]
Output: 0

Task: Here is the next compound: CN(C)Cc1ccc(-c2ccc3c(Nc4ccc(Oc5ccccn5)cc4)ccnc3c2)o1 [GW567148]
Output: 4

Task: # iterate: c1ccc(Oc2ccc(Nc3ccnc4cc(-c5ccc(CNCCN6CCOCC6)o5)ccc34)cc2)nc1 [GW567145]
Output: 30

Task: Please answer likewise for Cc1ccc(S(=O)(=O)Nc2ccc(Nc3nccc(Nc4cccc5[nH]ncc45)n3)cc2)cc1 [GSK581271]
Output: 0

Task: // next record CN(c1ccc(NC(=O)Nc2cc(C(F)(F)F)ccc2F)cc1)c1ccnc(Nc2ccc(S(N)(=O)=O)cc2)n1 [GW809893]
Output: 0

Task: Repeat with O=C(Nc1cccc(-c2nn3ccccc3c2-c2ccnc(Nc3cccc(F)c3)n2)c1)c1c(F)ccc(F)c1Cl [GSK357952]
Output: 0

Task: Consider next the compound Cl.Cl.NCC(C(=O)Nc1cc(Br)c(-c2ccnc3[nH]ccc23)s1)c1ccccc1 (stereo not shown) [GSK1269851] in the same way.
Output: 0

Task: Continue with Cl.Cl.NCC(NCc1ccc(-c2ccnc3[nH]ccc23)s1)c1ccccc1 (stereo not shown) [GSK1321565]
Output: 20

Task: Here is the next compound: Fc1ccc(-c2ncn(C3CCNCC3)c2-c2ccnc(Oc3ccc(-c4ccccc4)cc3)n2)cc1 [SB-245391]
Output: 41

Task: Cl.NC(=O)c1cccc(Nc2nccc(Nc3ccc(Oc4c(Cl)cccc4Cl)c(Cl)c3)n2)c1 [GW659009] ?
Output: 2

Task: // next record O=C(Nc1cccc(-c2nn3ccccc3c2-c2ccnc(Nc3cccc(C(F)(F)F)c3)n2)c1)c1c(F)cccc1F [GSK292658]
Output: 0

Task: Param item: Nc1n[nH]c2cnc(-c3ccccc3)cc12 [SB-642124]
Output: 35

Task: For COc1cccc(NC(=O)NC2CCN(c3ccnc(Nc4cc(OC)c(OC)c(OC)c4)n3)C2)c1 (stereo not shown) [GSK1379763] then?
Output: 0

Task: For Cc1ccc(C(=O)Nc2ccc(Nc3ccnc4cc(-c5nccs5)ccc34)cc2O)cc1.Cl [GW494702] then?
Output: 28

Task: Moving on to the next compound: O=C(Nc1cccc(Oc2ccc3nc(NC(=O)C4CC4)cn3n2)c1)c1ccccc1C(F)(F)F
Output: 0

Task: Let us now turn to COCCOCCOc1cc2ncc3c4ccc(C#N)cc4[nH]c3c2cc1OC
Output: 9

Task: Now the same for O=c1[nH]cc(-c2ccc(N3CCOCC3)cc2)c2sc(-c3cn[nH]c3)cc12 [GSK2276055]
Output: 0

Task: What would you report for COc1cccc(C2=C(Nc3ccc(Cl)c(C(=O)O)c3)C(=O)NC2=O)c1 [SB-390769] ?
Output: 31

====

test system: MST1; construct: gene STK4; settings: concentration: 1 μM, replicates: in singlicate; n = 1
Please respond with reported %Inh for every item in the list.
Field format: number, assumed %, no unit text.

Task: GET /values?readout=%Inh&item= CC(=O)Nc1nc2cnc(Nc3cc(NC(=O)c4cccc(C5(C#N)CC5)c4Cl)ccc3C)nc2s1
Output: 0

Task: Let us now turn to CC(C)c1nc(-c2cccc(NS(=O)(=O)c3c(F)cccc3F)c2F)c(-c2ccnc(Nc3ccc(N4CCOCC4)nc3)n2)s1 [GSK2008607]
Output: 55

Task: Here is the next compound: C[C@@H]1CC[C@@H](C(=O)Nc2ccccc2)CN1c1cc(-c2ccc3c(N)n[nH]c3c2)nc(N)n1 [GSK2286062]
Output: 0

Task: Another: Cl.Cl.NCC(NC(=O)c1cc(-c2ccccc2)c(-c2ccnc3[nH]ccc23)s1)c1ccccc1 (stereo not shown) [GSK1321561]
Output: 0

Task: Same lookup for Cc1ccc(C)c(NC(=O)NC2CCN(c3ccnc(Nc4ccc(F)cc4)n3)C2)c1 (stereo not shown) [GSK1379720] , please.
Output: 0

Task: Again, but for COc1ccc(-c2coc3ccc(-c4nnc(SCc5ccc(OC)c(C(F)(F)F)c5)o4)cc23)cc1
Output: 32

Task: Param item: CN1CCN(CCCNc2nccc(-c3c(-c4ccc(F)cc4)nn4cc(C(F)(F)F)ccc34)n2)CC1 [GW621581]
Output: 11

Task: Param item: Nc1ncc(-c2cccnc2)c2scc(-c3ccc4c(c3)CCN4C(=O)Cc3ccccc3)c12 [GSK683281]
Output: 95.8

Task: Now the compound O=C(Nc1ccccc1F)NC1CCN(c2ccnc(Nc3ccc(F)cc3)n2)CC1 [GSK1379800]
Output: 1

Task: // repeat for Fc1ccc(-c2ncn(C3CCNCC3)c2-c2ccnc(Oc3ccc(-c4ccccc4)cc3)n2)cc1 [SB-245391] and report
Output: 27

Task: Would you mind doing COc1cccc(C2=C(Nc3ccc(Cl)c(C(=O)O)c3)C(=O)NC2=O)c1 [SB-390769] as well?
Output: 25

Task: What do you have for CN(C)Cc1ccc(-c2ccc3c(Nc4ccc(Oc5ccccn5)cc4)ccnc3c2)o1 [GW567148] ?
Output: 14

Task: Also CSc1cccc2c(-c3ccncn3)c(-c3ccc(F)cc3)nn12 [GW514786] ?
Output: 5

Task: Okay, and COc1cccc(-c2ccc3c(NC(=O)C4CC4)n[nH]c3n2)c1 [SB-710903] ?
Output: 3

Task: What do we get for COc1cccc(NC(=O)NC2CCN(c3ccnc(Nc4cc(OC)c(OC)c(OC)c4)n3)C2)c1 (stereo not shown) [GSK1379763] ?
Output: 0

Task: Another compound to look at: CNC(=O)c1ccccc1Nc1nc(Nc2ccc(N3CCOCC3)cc2)ncc1Cl.Cl [GSK1576028]
Output: 99.1
